- System: Saccharomyces cerevisiae
- procedureSummary: fraction of cells in G1 phase (DNA content, flow cytometry); higher = more cells with unreplicated DNA (G1 delay)
- experimentalConditions: temperature: 30 C; YPD; JTY2953 pdr5 snq2 (sensitized); drug added to: cultures diluted from stationary phase; 6-7 h
Classes based on fraction of cells in G1 phase: low = under 0.5, middle = from 0.5 up to 0.6, high = 0.6 and over

molecule="COc1cc(NC(C)CCCN)c2ncccc2c1 (configuration not stated) [Primaquine phosphate] (77.1146 µM)" discretelabel=low
molecule="COc1cc(NS(=O)(=O)c2ccc(N)cc2)nc(OC)n1 [Sulfadimethoxine] (64.4467 µM)" discretelabel=low
molecule="CN1CCN(CC(=O)N2c3ccccc3C(=O)Nc3cccnc32)CC1 [Pirenzepine 2HCl] (56.9133 µM)" discretelabel=middle
molecule="O=C(O)CCC(=O)c1ccc(-c2ccccc2)cc1 [Fenbufen] (78.6509 µM)" discretelabel=middle
molecule="CCC[S+]([O-])c1ccc2[nH]c(NC(=O)OC)nc2c1 (configuration not stated) [Ricobendazole] (71.0895 µM)" discretelabel=low
molecule="C[C@H](CS)C(=O)N1CCC[C@H]1C(=O)O [Captopril] (92.0434 µM)" discretelabel=high
molecule="CN1CCN(CCCN2c3ccccc3Sc3ccc(C(F)(F)F)cc32)CC1 [Trifluoperazine 2HCl] (41.632 µM)" discretelabel=high
molecule="Cc1oncc1C(=O)Nc1ccc(C(F)(F)F)cc1 [Leflunomide] (74.0157 µM)" discretelabel=middle
molecule="O=C(Nc1cccc2c(=O)cc(-c3nnn[nH]3)oc12)c1ccc(OCCCCc2ccccc2)cc1 [Pranlukast] (41.5355 µM)" discretelabel=middle
molecule="CO/N=C(\\C(=O)N[C@@H]1C(=O)N2C(C(=O)O)=C(COC(C)=O)CS[C@H]12)c1csc(N)n1 [Cefotaxime acid] (43.9106 µM)" discretelabel=low
molecule="C#C[C@]1(O)CC[C@H]2[C@@H]3CCC4=Cc5oncc5C[C@]4(C)[C@H]3CC[C@@]21C [Danazol] (59.2652 µM)" discretelabel=high
molecule="CCOC(=O)[N-]c1c[n+](N2CCOCC2)no1 [Molsidomine] (82.564 µM)" discretelabel=middle

----------
- System: Saccharomyces cerevisiae
- procedureSummary: fraction of cells in G1 phase (DNA content, flow cytometry); higher = more cells with unreplicated DNA (G1 delay)
- experimentalConditions: temperature: 30 C; YPD; JTY2953 pdr5 snq2 (sensitized); drug added to: cultures diluted from stationary phase; 6-7 h
Structures can show the parent of a compound that is named as a salt.
quantityMeasured: fraction of cells in G1 phase

compound="CO[C@@H]1[C@H](OC(=O)/C=C/C=C/C=C/C=C/C(=O)O)CC[C@]2(CO2)[C@H]1[C@@]1(C)O[C@@H]1CC=C(C)C [Fumagillin] (43.6151 µM)" quantitymeasured="fraction of cells in G1 phase" measvalue=0.518
compound="CC(=O)NC[C@H]1CN(c2ccc(N3CCOCC3)c(F)c2)C(=O)O1 [Linezolid] (59.2849 µM)" quantitymeasured="fraction of cells in G1 phase" measvalue=0.526
compound="C[C@H]1[C@H](NC(=O)/C(=N\\OC(C)(C)C(=O)O)c2csc(N)n2)C(=O)N1S(=O)(=O)O [Aztreonam] (45.9309 µM)" quantitymeasured="fraction of cells in G1 phase" measvalue=0.489
compound="CC(C)[C@H](N)C(=O)OCCOCn1cnc2c(=O)nc(N)[nH]c21 [Valaciclovir] (61.6633 µM)" quantitymeasured="fraction of cells in G1 phase" measvalue=0.465
compound="Cc1cnc(NC(=O)C2=C(O)c3ccccc3S(=O)(=O)N2C)s1 [Meloxicam] (56.9143 µM)" quantitymeasured="fraction of cells in G1 phase" measvalue=0.501
compound="CCN(CC)CCCC(C)Nc1ccnc2cc(Cl)ccc12 (stereo not drawn) [Chloroquine phosphate] (62.5232 µM)" quantitymeasured="fraction of cells in G1 phase" measvalue=0.469
compound="COc1c(N2C[C@@H]3CCCN[C@@H]3C2)c(F)cc2c(=O)c(C(=O)O)cn(C3CC3)c12 [Moxifloxacin HCl] (45.6725 µM)" quantitymeasured="fraction of cells in G1 phase" measvalue=0.212
compound="COc1ccc(C(=O)NCc2cccnc2)cc1C(=O)NCc1cccnc1 [Picotamide] (53.1323 µM)" quantitymeasured="fraction of cells in G1 phase" measvalue=0.459
